- assay-notes: forskolin-driven CRE-LacZ activity in PC12 – cell-based, CRE-LacZ reporter, forskolin-stimulated, primary screen (AID 1146);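 note: PC12 cells with 6xCRE LacZ reporter stimulated by forskolin 10 µM; beta-galactosidase reporter signal reflecting CREB driven transcription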
- condition-context: luminescence, 4.5 h, higher = more signal, called active from +8 up or from −8 down
Class Condition met: z-score at least -0.5. Class Condition not met: z-score below -0.5.

compound | assigned-category
CO[C@H]1O[C@H](CO)[C@@H](OC(=O)Nc2cccc(F)c2)[C@H](OC(=O)Nc2ccc3c(c2)OCO3)[C@H]1OC(=O)Nc1ccc2c(c1)OCO2 | Condition not met
O=c1c2ccc(Br)cc2nc(-c2ccccc2)n1Cc1cccc(O)c1 | Condition not met
COc1ccc(C(=O)Nc2ccc(CN3C(=O)[C@@]4(O[C@@H](CC(=O)N5Cc6ccccc6C[C@H]5CO)[C@H]([Si](C)(C)c5ccc(OC)cc5)[C@H]4C)c4ccccc43)cc2)cc1 | Condition met
COC(=O)[C@@]1(Cc2ccccc2)[C@H]2c3cc(C(=O)N4CCCC4)n(Cc4ccc(OC(F)(F)F)cc4)c3C[C@H]2CN1C(=O)c1ccccc1 | Condition met
O=C1O[C@H](c2ccccc2)[C@H](c2ccccc2)N2[C@H]1[C@@H](C(=O)N1CCN(c3ncccn3)CC1)[C@]1(C(=O)Nc3ccc(C#CCCO)cc31)[C@H]2c1ccccc1OCCO | Condition met
CC1CC/C=C\[C@H]2OC34C=CCN(c5ccc(Cl)cc5)C(=O)[C@H]3N(C(CO)C(C)C)C(=O)[C@]4(C)C2C(=O)O1 (stereo partly specified) | Condition met

---

- test-system: Epidermal growth factor receptor (Homo sapiens)
- assay-notes: compounds binding epidermal growth factor receptor – biochemical, small-molecule microarray, 635 nm fluorescence, primary screen (AID 1104);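 note: score merges 667 nm emission intensity with spot signal to noise over triplicate slides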
- condition-context: EGFR binding, higher = more signal
composite z-score for assorted molecules

compound-string | composite z-score
CCOC(=O)C[C@H]1[C@H](OC(=O)Cc2ccc3c(c2)OCO3)[C@@H](NC(=O)c2ccccc2)c2cc(OCCCO)ccc2N1C(=O)c1ccccc1 | 0.437
C[N+](C)(C)CCCCCCNC(=O)[C@@H]1C[C@@H]2C(=O)NCC(=O)N2[C@@H]1c1ccc(O)cc1 | 0.0357
[N-]=[N+]=NCc1ccccc1[C@H]1OC(c2ccc(OCCCO)cc2)=N[C@@]1(Cc1ccccc1N=[N+]=[N-])C(=O)N1CCCCC1 | 0.363
NC(=O)[C@@H]1[C@H]2C(=O)O[C@H](c3ccccc3)[C@H](c3ccccc3)N2[C@H](c2ccccc2OCCO)[C@@]12C(=O)Nc1ccc(C#CCCO)cc12 | -0.461

---

- System: Human papillomavirus type 1a E7 protein (residues 1-88)
- assay-notes: HPV1a E7 small-molecule binders, primary screen, biochemical, small-molecule microarray, residues 1-88, 635 nm (AID 1129)
- condition-context: small-molecule microarray binding, fluorescence 635 nm; higher = more signal
Classification field: satisfied = composite z-score at or over 1; not satisfied = composite z-score under 1.

compound | assigned-category
CN(C)CCCCCCNC(=O)[C@@H]1C[C@@H]2C(=O)NCC(=O)N2[C@@H]1c1ccc(O)cc1 | satisfied
COC(=O)C(CC#Cc1ccc2c(c1)[C@]1(C(=O)N2)[C@H](C(=O)N2CCc3cc(OC)c(OC)cc3C2)[C@H]2C(=O)O[C@H](c3ccccc3)[C@H](c3ccccc3)N2[C@@H]1c1ccc(O)cc1)C(=O)OC | satisfied
COc1ccc([Si](C)(C)[C@@H]2[C@@H](CC(=O)N3Cc4ccccc4C[C@H]3CO)O[C@]3(C(=O)N(Cc4cccc(N5CCCCC5=O)c4)c4ccccc43)[C@H]2C)cc1 | satisfied
CCCCC=C[C@@H](NC(=O)CCc1ccccc1)c1ccccc1 | satisfied
CC1(C)[C@@H]2CC(C(O)C3C=CC4C(=O)N(c5ccccc5)C(=O)C4N3Nc3ccccc3F)=C[C@@H]1C2 (some centres undefined) | satisfied
C=CC[C@]1(C(=O)N2CCOCC2)N=C(c2ccc(OCCCO)cc2)O[C@H]1c1ccccc1CN=[N+]=[N-] | satisfied
C=CCN1C(=O)[C@@]2(O[C@@H](CCn3cc([C@H](O)c4ccccc4)nn3)[C@H]([Si](C)(C)c3ccc(OC)cc3)[C@H]2C)c2cc(NC(=O)c3ccc(OC)cc3)ccc21 | not satisfied
CN(C)C(=O)[C@@]1(CCC(=O)OC(C)(C)C)COC(c2ccc(OCCCO)cc2)=N1 | satisfied
CCOC(=O)C1=CC[C@@H](c2cccc(Br)c2)N(S(=O)(=O)c2ccc(C)cc2)[C@H]1c1ccc([N+](=O)[O-])cc1 | satisfied
COc1ccc([Si](C)(C)[C@H]2[C@H](CCn3cc(CCO)nn3)O[C@@]3(C(=O)N(Cc4cccc(N5C(=O)c6cccc7cccc5c67)c4)c4ccccc43)[C@@H]2C)cc1 | satisfied
O=C1C[C@@](C(=O)NCc2ccccc2)(c2ccc([N+](=O)[O-])cc2)[C@@H](c2ccc(CO)cc2I)N1C1CCCCC1 | satisfied
COC(=O)[C@@]1(Cc2ccccc2)[C@H]2c3cc(C(=O)N4CCCC4)n(Cc4ccc(OC(F)(F)F)cc4)c3C[C@H]2CN1C(=O)c1ccccc1 | satisfied
O=C1c2ccccc2C(=O)C2CC([C@H]3Oc4ccccc4S(=O)(=O)N4CCC[C@@H]34)=CCC12 (some centres undefined) | not satisfied
